# TARGET: Potassium voltage-gated channel subfamily KQT member 1 (Homo sapiens) (UniProt P51787)
# Sequence (P51787 whole entry, looked up): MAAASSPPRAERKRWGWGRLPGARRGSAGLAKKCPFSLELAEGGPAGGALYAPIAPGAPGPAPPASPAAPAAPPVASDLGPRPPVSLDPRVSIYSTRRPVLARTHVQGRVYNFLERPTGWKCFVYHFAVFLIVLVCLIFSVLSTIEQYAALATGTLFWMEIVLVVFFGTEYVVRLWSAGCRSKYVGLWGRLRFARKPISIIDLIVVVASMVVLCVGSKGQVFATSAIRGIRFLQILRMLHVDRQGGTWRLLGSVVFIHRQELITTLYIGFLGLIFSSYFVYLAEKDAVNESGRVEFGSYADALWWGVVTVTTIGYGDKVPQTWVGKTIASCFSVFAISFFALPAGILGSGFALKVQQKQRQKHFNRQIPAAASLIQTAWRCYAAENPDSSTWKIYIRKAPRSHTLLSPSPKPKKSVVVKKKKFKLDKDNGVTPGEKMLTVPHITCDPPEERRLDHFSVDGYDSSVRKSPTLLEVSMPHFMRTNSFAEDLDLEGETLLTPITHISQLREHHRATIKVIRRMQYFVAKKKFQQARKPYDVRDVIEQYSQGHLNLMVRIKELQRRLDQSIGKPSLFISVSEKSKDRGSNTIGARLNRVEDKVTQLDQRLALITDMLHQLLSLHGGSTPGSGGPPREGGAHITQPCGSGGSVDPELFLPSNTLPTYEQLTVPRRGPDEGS
# PROCEDURE_DETAILS: inhibitors of human KCNQ1 channel, primary screen, cell-based, thallium flux, high-throughput (AID 2642);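 note: channel opened by potassium depolarization with thallium stimulus after 20 min compound exposure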
# APPLIED_CONDITIONS: CHO-K1 KCNQ1, FluxOR thallium flux fluorescence, at 10 µM
In all, about 310,000 compounds went through this assay and about 3,900 (1.3%) were called active.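 Rule for the calls: active = compounds whose thallium flux B-score, printed positive for inhibition, exceeds three library SD while starting fluorescence stays within three; inactive = the rest.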 The full list was thinned out, with actives kept by preference.
Lab note: assign the record to one of True = active, False = inactive

Could you check what this test reported for Cn1nccc1C(=O)NC1CCCc2c1cnn2-c1ccc(F)cc1F (stereo unspecified) ? True

// param item: CSCCC(NC(=O)COc1ccccc1)C(=O)OCCOc1ccc(Br)cc1 (stereo unspecified) ; yields the recorded call False

Call for entry Clc1ccc2nc(CSc3ccccc3)cn2c1 : False

Which result was noted for this molecule in the test: CN(C)C(=O)c1ccc2c(c1)C1C3CCC(C3)C1C(c1ccccc1)N2 (stereo unspecified) True

Assay outcome for COc1ccccc1N1CCN(C(=O)c2cn(-c3ccccc3)nc2-c2cccnc2)CC1 : what was it? False

Can you look up the reported call for CCN(CC)CCN(C(=O)c1cc(Cl)sc1Cl)c1nc2cc3c(cc2s1)OCO3 for me? True

Per the records of this test, what outcome belongs to CON(C)S(=O)(=O)c1ccc2c(c1)NC(=O)C1CCCN21 (stereo unspecified) ? False

Per the records of this test, what outcome belongs to COC(=O)c1sc(N2CCN(Cc3ccccc3)CC2)nc1N ? False

State the result this test recorded for Cc1cccc(NC(=O)c2ccc3c(=O)n(CC4CCCO4)c(=S)[nH]c3c2)c1 (stereo unspecified) . False

Record lookup: outcome of this test for Cc1ccc(C(=O)c2c(NC(=O)c3ccncc3)sc3c2CCCC3)cc1 ? False

# fetch the recorded call for CCS(=O)(=O)C1=NSC2=NC(=O)/C(=C\c3cc(C)n(-c4cccc(OC)c4)c3C)C(=N)N21 here True

What outcome does the record of this test show for CCc1noc(C)c1C(=O)Nc1nc2ccc(OC)cc2s1 ? False

In this assay, the call recorded for C/C(=N\NC(=O)Cc1ccccc1[N+](=O)[O-])c1cccnc1 was what? False

Called result for Cn1nccc1C(=O)NC1CCCc2c1cnn2-c1ccccc1F (stereo unspecified) True

Write down the call the test reported for this molecule. Item: Cc1noc(C)c1CSCC(=O)Nc1nc2ccc(Oc3ccccc3)cc2s1 True

Assay outcome for CNC(=O)C1CC(=O)N(Cc2ccc3c(c2)OCO3)C(=Nc2ccc(F)cc2)S1 (stereo unspecified) : what was it? False

State the result this test recorded for CC(=O)c1c(C)n(-c2ccc(C)cc2)c2ccc(O)cc12 . False

Recorded test call requested for Clc1ccc(C2[C@H]3CN(CC4CCCCC4)[C@H](c4ccccc4)C34CC2(c2cccnc2)C4)cn1 (stereo partly specified) False

What did this assay record as the result for CCOC(=O)c1sc(NC(=O)CSc2nc(C)cc(C(F)(F)F)n2)c(C#N)c1C ? False

Recorded call for CN(C(=O)CCNC(=O)Cn1ccc2ccccc2c1=O)c1ccc(Br)cc1 ? False

Please indicate how the test categorized CC(C)OC(=O)C(C#N)c1nc2ccccc2nc1N1CCN(Cc2ccccc2)CC1 (stereo unspecified) . True

Check the results log: what was the call for CCS(=O)(=O)C1=NSC2=NC(=O)/C(=C\c3ccc(OS(=O)(=O)c4ccccc4)cc3)C(=N)N21 ? False

Any idea what this test logged for O=C1NC(=O)C(c2ccc(Cl)cc2)N1 (stereo unspecified) ? False

// outcome(item) with item = COc1ccc(CC(NC(C)=O)C(=O)NC2CCN(C(=O)c3ccc(Cl)cc3)CC2)cc1 (stereo unspecified) False

How was Cc1cccc(NC(=O)C2CCCN(C(=O)Nc3ccc(F)cc3)C2)c1C (stereo unspecified) classified in this test? False

Look up the recorded call for COc1cc(C(=O)Nc2oc(-c3ccccc3)c(-c3ccccc3)c2C#N)cc(OC)c1OC in this test. False
